Source of measurements: patent US20190284293A1

# studySystem: T1, CD32a-H131 (FcgRIIa-H131) (Homo sapiens, UniProt P12318)
# T1 sequence (P12318 34-217 limits assumed): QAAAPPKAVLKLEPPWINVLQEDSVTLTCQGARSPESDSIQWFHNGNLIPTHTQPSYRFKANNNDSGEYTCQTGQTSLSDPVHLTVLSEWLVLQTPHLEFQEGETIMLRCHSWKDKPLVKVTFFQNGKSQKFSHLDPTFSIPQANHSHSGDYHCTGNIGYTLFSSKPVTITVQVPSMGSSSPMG
# experimentalDetails: SPR, antibody binding to anti-his Fab captured FcgR-his (% Rmax)
# measurementConditions: 1 μM antibody
valueType: % Rmax hCD32a-H131

Q) Give the measured % Rmax hCD32a-H131 for mAb5-IgG2.5 (protein, left off: another chain or arm of the molecule) constant: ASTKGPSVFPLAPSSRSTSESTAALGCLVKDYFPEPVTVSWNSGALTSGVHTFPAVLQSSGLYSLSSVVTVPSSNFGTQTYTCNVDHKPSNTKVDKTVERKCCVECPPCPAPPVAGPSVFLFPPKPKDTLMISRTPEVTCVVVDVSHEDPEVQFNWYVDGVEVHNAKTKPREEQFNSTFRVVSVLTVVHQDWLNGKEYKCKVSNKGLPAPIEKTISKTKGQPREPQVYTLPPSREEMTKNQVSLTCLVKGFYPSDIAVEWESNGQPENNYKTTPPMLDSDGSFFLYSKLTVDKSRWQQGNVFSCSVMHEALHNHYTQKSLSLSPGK
A) 89%
